Method description: Cellular toxicity assay in CEM cells
Type: cell-based
Run conditions: human, CEM lymphoblastoid cells, read-out: Cytotoxicity
Measurement name: CC50 (µM)
Express the result in µM but write the number alone.

compound="C#CCNC(=O)C(=O)c1c(C)c(C(=O)Nc2ccc(F)c(C)c2)n(C)c1C [Compound 64]" measurement_name=CC50 quantitative_readout=18

We next turn to a different compound, shown below.
response.value for Cc1c(C(=O)C(=O)N2CCOCC2)c(C)n(C)c1C(=O)Nc1ccc(F)c(F)c1 [Compound 72] (field: CC50) = 14

###

Method description: Cellular toxicity assay in CEM cells
Assay type: cell-based
Run conditions: human, CEM lymphoblastoid cells, read-out: Cytotoxicity
Measured CC50 values are reported for all entries that follow.
Express the result in µM but write the number alone.

compound_string=C=CCNC(=O)C(=O)c1c(C)c(C(=O)Nc2ccc(F)c(F)c2)n(C)c1C quantitative_readout=66
compound_string=Cn1cc(NS(=O)(=O)c2ccccc2)cc1C(=O)Nc1ccc(F)c(F)c1 quantitative_readout=36.7
compound_string=Cc1c(C(=O)C(=O)Nc2ccccn2)c(C)n(C)c1C(=O)Nc1ccccc1 quantitative_readout=50

response.value for "Cc1c(C(=O)C(=O)Nc2nc3ccccc3[nH]2)c(C)n(C)c1C(=O)Nc1ccc(F)c(F)c1" (field: CC50) = 38

response.value for "C#CCNC(=O)C(=O)c1c(C)c(C(=O)Nc2ccc(S(F)(F)(F)(F)F)cc2)n(C)c1C" (field: CC50) = 3

###

Measured CC50 values are reported for all entries that follow.
Method description: Cellular toxicity assay in Vero cells
Format: cell-based
Run conditions: African green monkey, read-out: Cytotoxicity

Examples with their reported CC50 follow.
compound_string=C=CCNC(=O)C(=O)c1c(C)c(C(=O)Nc2ccc(F)c(F)c2)n(C)c1C measurement_name=CC50 result="33 µM"
compound_string=Cc1c(C(=O)C(=O)NCC#N)c(C)n(C)c1C(=O)Nc1ccc(F)c(F)c1 measurement_name=CC50 result="> 100 µM"
compound_string=C#CCNC(=O)C(=O)c1c(C)c(C(=O)Nc2ccc(F)c(C)c2)n(C)c1C measurement_name=CC50 result="96 µM"
compound_string=C#CCNC(=O)C(=O)c1c(C)c(C(=O)Nc2ccc(F)c(Cl)c2)n(C)c1C measurement_name=CC50 result="70 µM"
compound_string=Cc1c(C(=O)C(=O)N2CCN(C)CC2)c(C)n(C)c1C(=O)Nc1ccc(F)c(F)c1 measurement_name=CC50 result="> 100 µM"

response.value for "Cc1c(C(=O)C(=O)N2CCOCC2)c(C)n(C)c1C(=O)Nc1ccc(F)c(F)c1" (field: CC50) = 51 µM

response.value for "Cc1c(C(=O)C(=O)Nc2ccccc2)c(C)n(C)c1C(=O)Nc1ccc(F)c(F)c1" (field: CC50) = 48 µM

###

Method description: Cellular toxicity assay in CEM cells
Assay type: cell-based
Run conditions: human, CEM lymphoblastoid cells, read-out: Cytotoxicity
Procedure: The toxicity of the compounds was assessed in Vero, human PBM, CEM (human lymphoblastoid), MT-2, and HepG2 cells, as described previously (see Schinazi R. F., Sommadossi J.-P., Saalmann V., Cannon D. L., Xie M.-Y., Hart G. C., Smith G. A. & Hahn E. F. Antimicrob. Agents Chemother. 1990, 34, 1061-67). Cycloheximide was included as positive cytotoxic control, and untreated cells exposed to solvent were included as negative controls. […]
Measurement name: CC50 (µM)
Express the result in µM but write the number alone.

compound_string=Cc1c(C(=O)C(=O)NCc2c[nH]nn2)c(C)n(C)c1C(=O)Nc1ccc(F)c(F)c1 value_unit=µM quantitative_readout=29

We next turn to a different molecule, shown below.
response.value for "C#CCNC(=O)C(=O)c1c(C)c(C(=O)Nc2cccc(S(F)(F)(F)(F)F)c2)n(C)c1C" (field: CC50) = 23
